target: low affinity glucocorticoid binding site (LAGS) (Rattus norvegicus); experiment: competition analysis with 5×10^−8M [3H]dexamethasone for binding to the LAGS; conditions: read-out: IC50% (concentration of unlabelled competitor reducing specific binding of radiolabelled dexamethasone to the LAGS to 50% of control)
Sequence (P70580 2-195): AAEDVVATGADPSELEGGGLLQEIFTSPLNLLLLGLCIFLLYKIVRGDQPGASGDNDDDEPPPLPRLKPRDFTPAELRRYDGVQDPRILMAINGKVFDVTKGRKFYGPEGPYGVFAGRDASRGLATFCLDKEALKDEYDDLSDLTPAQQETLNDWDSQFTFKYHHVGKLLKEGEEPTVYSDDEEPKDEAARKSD
Threshold 10 µM: IC50 strictly smaller gives y, otherwise n.

Worked set:
• CC(=O)[C@H]1CC[C@H]2[C@@H]3CCC4=CC(=O)CC[C@]4(C)[C@H]3[C@H](O)C[C@]12C [11α-hydroxyprogesterone] = y
• CC(=O)O[C@@H]1C[C@H]2[C@@H]3CC[C@H](C(C)=O)[C@@]3(C)CC[C@@H]2[C@@]2(C)CCC(=O)C=C12 [6β-progesterone acetate] = y
• CC1CC2C3CCC4=CC(=O)C=CC4(C)C3(F)C(O)CC2(C)C1(O)C(=O)O (centres unmarked) = n
• CC(=O)[C@H]1CC[C@H]2[C@@H]3C[C@@H](O)C4=CC(=O)CC[C@]4(C)[C@H]3CC[C@]12C [6α-hydroxyprogesterone] = y
• CC(=NOCC(=O)O)[C@H]1CC[C@H]2[C@@H]3CCC4=C[C@@H](O)CC[C@]4(C)[C@H]3CC[C@]12C = n

A record lists CC(=O)O[C@@H]1C[C@]2(C)[C@@H](C(C)=O)CC[C@H]2[C@@H]2CCC3=CC(=O)CC[C@]3(C)[C@H]21 [11α-progesterone acetate] . Is its IC50 below 10 µM?
y
